Data origin, for the record: patent US20160185837A1

# tested_on: human GLP-1 receptor (hGLP-1r) (Homo sapiens)
# Construct: expressed in transfected cells
# protocol_description: BSA-cAMP assay, cells expressing human GLP-1 receptor
# Format: cell-based
# recorded_conditions: Batch 1; BSA-cAMP assay; read-out: hGLP1r cAMP activity EC50
recorded_endpoint: EC50 (nM)
Your answer should be a plain number; it is taken to be in nM.

substance: IP420: Fc fusion, IgG1-TM, SEQ ID NO:391; agonist peptide YSEGTFTSDYSKLLEEEATRLFIEWLLAGG (YSEGTFTSDYSKLLEEEATRLFIEWLLAGGGGGGSGGGGSGGGGSGGGGSATHTCPPC)
EC50 [nM]: 0.082

Query substance follows.
Exam item: Could you share what EC50 was measured for IP311 (YSEGTFISDYSIALAAAAIDDFVNWLLAGGGGGGGSGGGGSGGGGSGGGGSATHTCPPC) , tested on human GLP-1 receptor (hGLP-1r) (Homo sapiens)?
Marked response: 670

###

Recorded log10 EC50 for the following substances
# tested_on: human GLP-1 receptor (hGLP-1r) (Homo sapiens, UniProt P43220)
# Construct: expressed in transfected cells
# Sequence (P43220 24-463): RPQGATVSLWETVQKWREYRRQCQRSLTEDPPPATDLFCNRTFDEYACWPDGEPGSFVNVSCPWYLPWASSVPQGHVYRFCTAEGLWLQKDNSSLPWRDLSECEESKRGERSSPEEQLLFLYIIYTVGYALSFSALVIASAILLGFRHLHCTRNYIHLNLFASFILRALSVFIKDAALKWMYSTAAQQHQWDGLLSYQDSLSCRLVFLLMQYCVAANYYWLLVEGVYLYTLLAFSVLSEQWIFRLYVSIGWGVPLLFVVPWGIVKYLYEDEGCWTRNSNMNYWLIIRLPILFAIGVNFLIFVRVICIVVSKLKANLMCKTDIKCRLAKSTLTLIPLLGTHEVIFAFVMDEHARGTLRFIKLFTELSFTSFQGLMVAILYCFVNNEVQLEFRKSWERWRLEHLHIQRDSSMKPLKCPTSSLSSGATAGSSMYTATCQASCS
# protocol_description: BSA-cAMP assay, cells expressing human GLP-1 receptor
# Format: cell-based
# recorded_conditions: Batch 1; BSA-cAMP assay; read-out: hGLP1r cAMP activity EC50
Reminder: these figures are log10 of reported EC50, in nM before transformation.

Below, 5 substances whose answers are already recorded.
substance: IP396 (YSEGTFTSDYSKLLERQAIDEFIAWLLKGGGGGGGSGGGGSGGGGSGGGGSACPPC)
log10 EC50: -0.96
//
substance: IP308 (YSEGTFISDYSIALAAAAAKDFVNWLLAGGGGGGGSGGGGSGGGGSGGGGSATHTCPPC)
log10 EC50: 3.11
//
substance: IP413: Fc fusion, IgG1-TM, SEQ ID NO:388; agonist peptide YSEGTFTSDYSKLLEEEASRLFIEWLLAGG (YSEGTFTSDYSKLLEEEASRLFIEWLLAGGGGGGSGGGGSGGGGSGGGGSATHTCPPC)
log10 EC50: -0.72
//
substance: IP395 (YSEGTFTSDYSKLLERQAIDEFIAHLLKGGGGGGGSGGGGSGGGGSGGGGSACPPC)
log10 EC50: -0.92
//
substance: IP320 (YSEGTFTSDYAAAAEAAAAAAFAAWLAAAAGGGGGSGGGGSGGGGSGGGGSACPPC)
log10 EC50: 2.20

Exam item: What value of log10 EC50 has been recorded for this entry: IP305: Fc fusion, IgG1-TM(ΔK), SEQ ID NO:430; agonist peptide YSEGTFISDYSIALAAAAVRDFVNWLLAGG (YSEGTFISDYSIALAAAAVRDFVNWLLAGGGGGGGSGGGGSGGGGSGGGGSATHTCPPC)
Marked response: 2.36

Exam item: Record request: log10 EC50 value, item IP407: Fc fusion, IgG1-TM, SEQ ID NO:384; agonist peptide YSEGTFTSDYSKLLEEEAIRLFIEWLLAGG (YSEGTFTSDYSKLLEEEAIRLFIEWLLAGGGGGGSGGGGSGGGGSGGGGSATHTCPPC)
Marked response: -0.60

Exam item: Recorded log10 EC50 of IP380: Fc fusion, IgG1-fusion, SEQ ID NO:376; agonist peptide YSEGTFTSDYSKLLEEEAVRLFIEFLLAGG (YSEGTFTSDYSKLLEEEAVRLFIEFLLAGGGGGGSGGGGSGGGGSGGGGSATHTCPPC) , please.
Marked response: -0.96

Exam item: Consider the substance shown here: IP381: Fc fusion, IgG1-fusion, SEQ ID NO:377; agonist peptide YSEGTFTSDYSKLLEEEAVRLFIEYLLAGG (YSEGTFTSDYSKLLEEEAVRLFIEYLLAGGGGGGSGGGGSGGGGSGGGGSATHTCPPC) What is its recorded log10 EC50?
Marked response: -1.04

Exam item: So what does the record say about log10 EC50 for IP368 (YSEGTFTSDYRQAIDRQAIDEFIAWLLKGGGGGGGSGGGGSGGGGSGGGGSACPPC) ?
Marked response: 2.36

Exam item: I have this substance here, IP342 (YSEGTFTSDYSAAAEAAAAAAFAAWLAAAAGGGGGSGGGGSGGGGSGGGGSACPPC) , and I need its recorded log10 EC50.
Marked response: 1.88

Exam item: State the recorded log10 EC50 for this entry: IP385 (YSEGTFTSDYSIYLDRQAIDEFIAWLLKGGGGGGGSGGGGSGGGGSGGGGSACPPC)
Marked response: -0.33

###

# tested_on: rat GLP-1 receptor (rGLP-1r) (Rattus norvegicus, UniProt P32301)
# Construct: expressed in transfected cells; host or cells: HEK293s or CHO cells
# Sequence (P32301 22-463): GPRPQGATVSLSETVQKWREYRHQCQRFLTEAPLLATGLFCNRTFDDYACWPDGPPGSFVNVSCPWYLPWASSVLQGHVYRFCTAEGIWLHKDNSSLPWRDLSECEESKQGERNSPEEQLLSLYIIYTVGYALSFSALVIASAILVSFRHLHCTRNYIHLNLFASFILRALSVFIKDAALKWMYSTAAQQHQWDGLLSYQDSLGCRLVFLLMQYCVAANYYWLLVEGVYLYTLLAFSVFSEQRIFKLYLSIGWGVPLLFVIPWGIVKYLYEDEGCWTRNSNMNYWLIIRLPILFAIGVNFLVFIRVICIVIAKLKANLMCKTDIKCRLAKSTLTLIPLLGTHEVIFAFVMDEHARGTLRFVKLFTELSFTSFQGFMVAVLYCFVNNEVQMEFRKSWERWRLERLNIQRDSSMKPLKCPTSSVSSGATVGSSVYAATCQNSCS
# protocol_description: BSA-cAMP assay, cells expressing rat GLP-1 receptor
# Type: cell-based
# recorded_conditions: Batch 1; BSA-cAMP assay; read-out: rGLP1r cAMP activity EC50
recorded_endpoint: EC50 (nM)
Record the value in nM, omitting the unit from your answer.

substance: IP305: Fc fusion, IgG1-TM(ΔK), SEQ ID NO:430; agonist peptide YSEGTFISDYSIALAAAAVRDFVNWLLAGG (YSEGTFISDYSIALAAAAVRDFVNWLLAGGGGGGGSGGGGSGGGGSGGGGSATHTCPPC)
tested_on: rat GLP-1 receptor (rGLP-1r) (Rattus norvegicus, UniProt P32301)
data_value: 47
--
substance: IP314: Fc fusion, IgG1-TM(ΔK), SEQ ID NO:431; agonist peptide YSEGTFISDYSKLLAAAAVRDFVNWLLAGG (YSEGTFISDYSKLLAAAAVRDFVNWLLAGGGGGGGSGGGGSGGGGSGGGGSATHTCPPC)
tested_on: rat GLP-1 receptor (rGLP-1r) (Rattus norvegicus, UniProt P32301)
data_value: 450
--
substance: IP368 (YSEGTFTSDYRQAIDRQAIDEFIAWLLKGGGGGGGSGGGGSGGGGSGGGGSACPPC)
tested_on: rat GLP-1 receptor (rGLP-1r) (Rattus norvegicus, UniProt P32301)
data_value: 370

Query substance follows.
Exam item: What value of EC50 has been recorded for this entry: IP308 (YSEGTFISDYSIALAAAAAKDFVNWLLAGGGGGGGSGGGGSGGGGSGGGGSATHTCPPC)
Marked response: 700

###

# tested_on: rat GIP receptor (rGIPr) (Rattus norvegicus, UniProt P43219)
# Construct: expressed in transfected cells; host or cells: HEK293s or CHO cells
# Sequence (P43219 19-455): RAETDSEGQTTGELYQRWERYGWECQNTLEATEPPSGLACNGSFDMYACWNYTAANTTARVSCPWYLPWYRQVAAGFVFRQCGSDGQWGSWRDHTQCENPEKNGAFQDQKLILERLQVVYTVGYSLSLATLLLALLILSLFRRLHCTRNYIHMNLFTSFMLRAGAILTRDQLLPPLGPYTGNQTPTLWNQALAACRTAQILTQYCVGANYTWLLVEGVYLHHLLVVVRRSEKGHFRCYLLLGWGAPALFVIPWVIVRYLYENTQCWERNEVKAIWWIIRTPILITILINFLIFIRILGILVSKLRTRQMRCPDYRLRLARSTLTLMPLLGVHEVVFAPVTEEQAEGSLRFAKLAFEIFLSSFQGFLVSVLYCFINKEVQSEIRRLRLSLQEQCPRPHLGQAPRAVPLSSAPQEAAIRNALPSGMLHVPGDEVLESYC
# protocol_description: BSA-cAMP assay, cells expressing rat GIP receptor
# Format: cell-based
# recorded_conditions: Batch 1; BSA-cAMP assay; read-out: rGIPr cAMP activity EC50
recorded_endpoint: pEC50
A value of pEC50 is the negative decimal logarithm of a concentration given in moles per litre.

A selection of reference data follows.
substance: IP343 (YSEGTFTSDYAAAAERQAIDAFAAWLAAAAGGGGGSGGGGSGGGGSGGGGSA)
pEC50: 6.96
//
substance: IP318: Fc fusion, IgG1-TM(ΔK), SEQ ID NO:432; agonist peptide YSEGTFISDYSIAMDEEAVRDFVEWLKAGG (YSEGTFISDYSIAMDEEAVRDFVEWLKAGGGGGGGSGGGGSGGGGSGGGGSATHTCPPC)
pEC50: 7.85
//
substance: IP305: Fc fusion, IgG1-TM(ΔK), SEQ ID NO:430; agonist peptide YSEGTFISDYSIALAAAAVRDFVNWLLAGG (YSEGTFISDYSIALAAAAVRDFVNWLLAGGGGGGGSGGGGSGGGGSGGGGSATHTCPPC)
pEC50: 8.77

Exam item: Report pEC50 for IP342 (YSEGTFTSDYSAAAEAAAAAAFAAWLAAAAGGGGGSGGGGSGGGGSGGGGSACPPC) please.
Marked response: 8.29

Exam item: GET /values?readout=pEC50&item= IP302 (YSEGTFISDYSIALAAAAQQDFVNWLLAGGGGGGGSGGGGSGGGGSGGGGSATHTCPPC)
Marked response: 10.26

Exam item: If you can, please state the reported pEC50 value of IP380: Fc fusion, IgG1-fusion, SEQ ID NO:376; agonist peptide YSEGTFTSDYSKLLEEEAVRLFIEFLLAGG (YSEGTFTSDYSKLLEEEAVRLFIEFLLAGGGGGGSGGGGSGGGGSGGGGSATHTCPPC) .
Marked response: 10.22

Exam item: Item under review: IP335 (YSEGTFISDYSIAMDKIHQQDFVNWLLAQKGGGGGSGGGGSGGGGSGGGGSA) . Reported pEC50?
Marked response: 11.17

Exam item: For the substance shown here, IP381: Fc fusion, IgG1-fusion, SEQ ID NO:377; agonist peptide YSEGTFTSDYSKLLEEEAVRLFIEYLLAGG (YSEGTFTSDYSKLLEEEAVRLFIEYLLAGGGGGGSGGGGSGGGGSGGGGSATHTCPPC) , give the reported pEC50.
Marked response: 10.35

Exam item: Fill in the blank: the reported pEC50 of IP320 (YSEGTFTSDYAAAAEAAAAAAFAAWLAAAAGGGGGSGGGGSGGGGSGGGGSACPPC) is ____.
Marked response: 6.89
